Measured self-cleavage kobs at 2500 uM GlcN6P, listed per entry for reference.
B1: glmS ribozyme (parent)
chain: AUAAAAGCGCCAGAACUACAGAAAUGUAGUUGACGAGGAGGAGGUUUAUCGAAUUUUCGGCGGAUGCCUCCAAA

Variants of: B1
assay summary: self-cleavage kobs at 2500 uM GlcN6P; higher = faster cleavage; RNA array
condition label: with glucosamine-6-phosphate
This sample holds only a part of the variants without activity.
The response must be a number in s⁻¹ with no trailing unit.

INSERT INTO assay_data (mutation_descriptor, units_of_measure, recorded_result) VALUES
  ('G29C U55C', 's⁻¹', 0.00116),
  ('A12U', 's⁻¹', 0.049),
  ('A12C A14U U31C U56G', 's⁻¹', 0.0134),
  ('A15G U46G G66A C68U', 's⁻¹', 0.00078);

Query: Look at this variant and give its reported self-cleavage kobs at 2500 uM GlcN6P. A15U A39C
Response: 0.000499

Query: Look at this variant and give its reported self-cleavage kobs at 2500 uM GlcN6P. A52U U54A
Response: 0.000132

Query: Look at this variant and give its reported self-cleavage kobs at 2500 uM GlcN6P. A15G U65C
Response: 0.000852

Query: Look at this variant and give its reported self-cleavage kobs at 2500 uM GlcN6P. C50U C70U
Response: 4.25e-05

Query: Look at this variant and give its reported self-cleavage kobs at 2500 uM GlcN6P. G13U U46A
Response: 2.81e-05

Query: Look at this variant and give its reported self-cleavage kobs at 2500 uM GlcN6P. A15C A23C
Response: 0.00398

Query: Look at this variant and give its reported self-cleavage kobs at 2500 uM GlcN6P. A42U U69C
Response: 0.00357

Query: Look at this variant and give its reported self-cleavage kobs at 2500 uM GlcN6P. U55G C67A C68G
Response: 7.14e-05

Query: Look at this variant and give its reported self-cleavage kobs at 2500 uM GlcN6P. U31G U54A
Response: 0.00634

Query: Look at this variant and give its reported self-cleavage kobs at 2500 uM GlcN6P. C16U A39U G44U C67A
Response: 0.0154

Query: Look at this variant and give its reported self-cleavage kobs at 2500 uM GlcN6P. C50G U57C
Response: 5.18e-05

Query: Look at this variant and give its reported self-cleavage kobs at 2500 uM GlcN6P. U45G A48U
Response: 0.000209

Query: Look at this variant and give its reported self-cleavage kobs at 2500 uM GlcN6P. U30G U31G U49G U69G
Response: 6.45e-05
